Assay: Oral pharmacokinetics in mice
Format: in vivo, female BALB/c mice
Details: female, BALB/c, mouse, blood, 50 mg/kg, oral gavage, Time 0.5 (30 min), read-out: Free concentration in blood
Here, each record is paired with measured concentration at 30 min data.
The reply should read as a number followed by its unit.

>  <Molecule>
COc1ccc(C23COc4c(ccc(O)c4C)C2C2c4ccc(O)c(C)c4OCC2c2cc(OC)c(OC)cc23)cc1OC (centres unmarked)

>  <concentration at 30 min>
4.93 µM

$$$$

Proceeding to the next molecule to report its concentration at 30 min.
Problem: # lookup: concentration at 30 min of Oc1ccc(C2=Cc3ccc(O)cc3OC2)cc1 [DHE, 3-(4-hydroxyphenyl)chrom-3-en-7-ol]
Solution: 2.9 µM
